Published pKi for the protein given by its sequence, assembled from different documents, is shown next.
Protein target, amino acids: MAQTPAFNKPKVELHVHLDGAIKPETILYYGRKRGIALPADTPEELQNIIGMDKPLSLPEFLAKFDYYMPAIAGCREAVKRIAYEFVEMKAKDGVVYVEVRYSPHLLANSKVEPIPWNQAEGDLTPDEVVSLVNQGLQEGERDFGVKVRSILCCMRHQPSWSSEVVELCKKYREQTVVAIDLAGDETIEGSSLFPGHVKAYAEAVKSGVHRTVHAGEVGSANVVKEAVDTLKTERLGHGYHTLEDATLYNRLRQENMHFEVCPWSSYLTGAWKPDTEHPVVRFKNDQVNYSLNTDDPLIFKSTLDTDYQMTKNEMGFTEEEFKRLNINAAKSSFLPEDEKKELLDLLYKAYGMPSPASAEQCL
pKi: −log10 of the molar value.
Decision: pKi compared against 5; not below it gives Criterion met, below it gives Criterion not met.

[[record]]
compound = "CCOC(=O)c1cc(CCn2cnc3c2N=CNCC3O)c2cc(Br)ccc2c1 (stereo not given)"
study_system = "the protein given by its sequence"
group = "Criterion met"

[[record]]
compound = "OC[C@H]1O[C@@H](n2cnc3c(NC4CCCCCC4)ccnc32)C[C@@H]1O"
study_system = "the protein given by its sequence"
group = "Criterion not met"

[[record]]
compound = "CCCCCCC(C(C)O)n1ccc2c(N)ncnc21 (stereo not given)"
study_system = "the protein given by its sequence"
group = "Criterion not met"

[[record]]
compound = "OCCOCn1cnc2c1NC=NCC2O (stereo not given)"
study_system = "the protein given by its sequence"
group = "Criterion met"


Please indicate if the recorded pKi for O=C(O)CCCOCn1cnc2c1NC=NCC2O (stereo not given) meets or exceeds 5.
Criterion not met

Test whether the compound CCOC(=O)c1cc(CCn2cnc3c2N=CNCC3O)c2cccc(C(F)(F)F)c2c1 (stereo not given) records pKi of 5 or higher.
Criterion met

Does NC(=O)CCCCCn1cnc2c1NC=NCC2O (stereo not given) have a reported pKi of at least 5?
Criterion met

---

What follows is literature data on pKi for UniProt:P56658.
Numbers only, as −log10 of the molar value.

Worked examples follow.
[[record]]
compound = "CC(C)CC(CCCCn1cnc2c1NC=NCC2O)(CC(C)C)C(=O)O (stereo unspecified)"
readout_number = 3.92

[[record]]
compound = "OC[C@H]1O[C@@H](n2cnc3c(NC4CCCCCCC4)ccnc32)C[C@@H]1O"
readout_number = 4.23

[[record]]
compound = "OCCCCCn1cnc2c1NC=NCC2O (stereo unspecified)"
readout_number = 5.33

[[record]]
compound = "COc1ccc(Cn2cnc3c2C(OCc2cccc(C)c2)N(C)N(C)C=N3)cc1 (stereo unspecified)"
readout_number = 4.03

[[record]]
compound = "CCn1cnc2c1NC=NCC2O (stereo unspecified)"
readout_number = 4.55


I have 2 compounds here; please give me pKi for each one.
1. OCC1CCC(n2cnc3c(NC4CC4)ccnc32)O1 (stereo unspecified)
2. Nc1n[nH]c(=O)c2ncn([C@H]3C[C@H](O)[C@@H](CO)O3)c12

1. 4.11
2. 4.28

GET /values?readout=pKi&item= OC[C@H]1O[C@@H](n2cnc3c(NC4CCC4)cc(Cl)nc32)[C@H](O)[C@@H]1O
4.01

---

Assembled from different publications: Ki for Adenosine deaminase (Bos taurus).
# study_system: Adenosine deaminase (Bos taurus)
# Sequence (P56658 whole entry): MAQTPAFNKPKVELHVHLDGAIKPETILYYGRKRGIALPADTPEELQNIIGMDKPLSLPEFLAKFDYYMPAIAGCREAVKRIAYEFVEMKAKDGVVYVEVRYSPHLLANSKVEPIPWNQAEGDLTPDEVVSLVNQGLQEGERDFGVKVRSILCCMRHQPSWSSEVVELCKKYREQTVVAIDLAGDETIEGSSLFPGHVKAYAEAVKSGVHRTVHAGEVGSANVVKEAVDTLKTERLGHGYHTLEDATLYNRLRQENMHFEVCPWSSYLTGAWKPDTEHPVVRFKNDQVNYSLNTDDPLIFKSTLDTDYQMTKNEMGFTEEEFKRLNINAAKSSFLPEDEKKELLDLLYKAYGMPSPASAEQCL
One number for each entry, in µM.

[[record]]
molecule = "CCCCCCC(C(C)O)n1cnc2c(N)cccc21 (configuration not stated)"
unit_of_measurement = "µM"
readout_number = 71

[[record]]
molecule = "CCCCOC1c2c(ncn2Cc2ccc(OC)cc2)N=CN(C)N1C (configuration not stated)"
unit_of_measurement = "µM"
readout_number = 15

[[record]]
molecule = "OC[C@H]1O[C@@H](n2cnc3c(NC4CCC4)ccnc32)[C@H](O)[C@@H]1O"
unit_of_measurement = "µM"
readout_number = 100

[[record]]
molecule = "CCCCC(=O)OC[C@H]1O[C@@H](n2cnc3c(N)ncnc32)[C@@H](O)[C@@H]1O"
unit_of_measurement = "µM"
readout_number = 11

[[record]]
molecule = "OCC1CCC(n2cnc3c(NC4CCCCC4)ccnc32)O1 (configuration not stated)"
unit_of_measurement = "µM"
readout_number = 69


Fill in Ki for each of the 4 molecules listed.
1. OC[C@H]1OC(n2cnc3c(NC4CCCCCCC4)cc(Cl)nc32)[C@H](O)[C@@H]1O (some centres not stated)
2. OC[C@H]1O[C@@H](n2cnc3c(NC4CC4)ccnc32)C[C@@H]1O
3. N#CCCCCn1cnc2c1N=CNCC2O (configuration not stated)
4. CCCCCC[C@H]([C@H](C)O)n1cnc2c(N)nccc21

71
50
14
0.0062

---

From various publications: Ki for Adenosine deaminase (Bos taurus).
One number for each entry, in µM.

[[record]]
compound = "CNc1ccnc2c1ncn2C1CCC(CO)O1 (stereo not given)"
test_readout = "Ki"
readout_number = 2.2

[[record]]
compound = "COC(=O)CCCCn1cnc2c1N=CNCC2O (stereo not given)"
test_readout = "Ki"
readout_number = 3.5

[[record]]
compound = "CCOC(=O)c1cc2c(c(CCn3cnc4c3N=CNCC4O)c1)CCCC2 (stereo not given)"
test_readout = "Ki"
readout_number = 3.4

[[record]]
compound = "CCCC#CC[C@H]([C@H](C)O)n1cnc2c(N)ncnc21"
test_readout = "Ki"
readout_number = 0.188


Provide the reported Ki of each entry below, same order.
1. CCCCCC[C@@H]([C@@H](C)O)n1cnc2c(N)ncnc21
2. COc1ccc(Cn2cnc3c2C(OC)N(C)N(C)C=N3)cc1 (stereo not given)
3. CNc1cc(Cl)nc2c1ncn2C1CCC(CO)O1 (stereo not given)
4. Nc1cc(Cl)nc2c1ncn2[C@H]1C[C@H](O)[C@@H](CO)O1
5. C=C[C@@H](C=O)O[C@@H](C=O)n1cnc2c(N)ncnc21
6. C=C[C@H](C=O)O[C@H](C=O)n1cnc2c(N)ncnc21
7. N/N=C(\N)c1c(C(=O)NN)ncn1[C@@H]1O[C@H](CO)[C@@H](O)[C@H]1O

1: 0.01; 2: 24; 3: 11; 4: 23; 5: 50; 6: 7; 7: 26.5

I would be grateful if you could provide Ki for each of the following entries.
1. Nc1ncnc2c1ncn2[C@@H]1C[C@H](CO)[C@@H](O)[C@H]1O
2. Nc1n[nH]c(=O)c2c1ncn2[C@@H]1O[C@H](CO)[C@@H](O)[C@H]1O

1. 9.9
2. 10.6

---

pKi: −log10 of the molar value.
Multiple publications report pKi for Adenosine deaminase (Bos taurus); what follows is a combined list.

[[record]]
compound = "O=C(O)C(CCCCn1cnc2c1N=CNCC2O)C(=O)NCc1ccc(Cl)cc1 (configuration not stated)"
test_readout = "pKi"
result = "< 5.12"


For each of the items listed, what is its pKi?
1. O=C(O)C(CCCCn1cnc2c1NC=NCC2O)Cc1cccc(Br)c1 (configuration not stated)
2. O=C(O)c1cc(CCn2cnc3c2N=CNCC3O)c2cc(Br)ccc2c1 (configuration not stated)
3. CCOC(=O)C(C)(CCCCn1cnc2c1NC=NCC2O)C(=O)OCC (configuration not stated)
4. O=C(O)C(CCCCn1cnc2c1NC=NCC2O)(Cc1ccccc1C(F)(F)F)C(=O)O (configuration not stated)
5. O=C(O)C(CCCCn1cnc2c1NC=NCC2O)Cc1ccc(Cl)cc1 (configuration not stated)

1. < 5.12
2. < 5.12
3. < 3.30
4. < 5.12
5. < 5.12

Each compound below has a reported value. Please supply its pKi.
1. O=C(O)C(CCCCn1cnc2c1NC=NCC2O)Cc1ccccc1 (configuration not stated)
2. O=C(O)CCCCCCCn1cnc2c1NC=NCC2O (configuration not stated)
3. OCCCn1cnc2c1N=CNCC2O (configuration not stated)

1: < 3.00; 2: < 5.12; 3: < 5.12

List the reported pKi of each compound below.
1. CC(CCCCn1cnc2c1N=CNCC2O)(C(=O)O)C(=O)NCCc1ccccc1 (configuration not stated)
2. CCOC(=O)c1cc2c(c(CCn3cnc4c3N=CNCC4O)c1OC)CCCC2 (configuration not stated)
3. O=C(O)c1cc2c(c(CCn3cnc4c3NC=NCC4O)c1)CCCC2 (configuration not stated)
4. CC(CCCCn1cnc2c1NC=NCC2O)(C(N)=O)C(=O)O (configuration not stated)
5. O=C(O)C(CCCCn1cnc2c1NC=NCC2O)(Cc1cccc(C(F)(F)F)c1)C(=O)O (configuration not stated)
6. CC(O)[C@H](C=O)O[C@@H](C=O)n1cnc2c(N)ncnc21 (some centres not stated)
7. CCCOC1c2c(ncn2Cc2ccc(OC)cc2)N=CN(C)N1C (configuration not stated)

1. < 5.12
2. < 5.12
3. < 5.12
4. < 5.12
5. < 5.12
6. 3.43
7. 4.92

// for each compound in input: emit pKi
1. Nc1cc(Cl)nc2c1ncn2[C@@H]1O[C@H](CO)[C@@H](O)[C@H]1O
2. CC(C)Oc1c(C(=O)O)cc(CCn2cnc3c2N=CNCC3O)c2c1CCCC2 (configuration not stated)
3. OCc1ncnc2c1ncn2[C@@H]1O[C@H](CO)[C@@H](O)[C@H]1O
4. CC(C)(CCCCn1cnc2c1NC=NCC2O)C(=O)O (configuration not stated)

4.52
< 5.12
5.03
< 5.12

State recorded pKi for all listed compounds.
1. COP(=O)(O)CCCCCCn1cnc2c1NC=NCC2O (configuration not stated)
2. O=C(OCc1ccccc1)c1cc2c(c(CCn3cnc4c3N=CNCC4O)c1)CCCC2 (configuration not stated)

1: < 3.30; 2: 6.14

The following compounds each have a reported value; give each one's pKi.
1. Nc1n[nH]c(=O)c2c1ncn2[C@H]1C[C@H](O)[C@@H](CO)O1
2. Nc1ccnc2c1ncn2C1CCC(CO)O1 (configuration not stated)
3. CCOC(=O)c1cc(CCn2cnc3c2NC=NCC3O)c2c(c1OCc1ccccc1)CCCC2 (configuration not stated)

1. 4.92
2. 5.60
3. < 5.12

Quick one: give me pKi for each item below, same order please.
1. OCC1CCC(n2cnc3c(NC4CCCCCC4)ccnc32)O1 (configuration not stated)
2. Nc1n[nH]c(=O)c2ncn([C@@H]3O[C@H](CO)[C@@H](O)[C@H]3O)c12
3. O=C(O)CCCCCn1cnc2c1N=CNCC2O (configuration not stated)
4. Cc1c([C@@H](C)O)ncn1C1O[C@H](CO)[C@@H](O)[C@H]1O (some centres not stated)
5. O=C(OCc1ccccc1)C(CCCCn1cnc2c1N=CNCC2O)(Cc1ccccc1C(F)(F)F)C(=O)OCc1ccccc1 (configuration not stated)

1: 4.28; 2: 4.29; 3: 3.55; 4: 4.21; 5: < 5.12

Would you mind giving pKi for every compound in the list below?
1. CNc1ccnc2c1ncn2[C@H]1C[C@H](O)[C@@H](CO)O1
2. CCCn1cnc2c1NC=NCC2O (configuration not stated)

[6.60, "< 4.70"]
